The origin of these recorded values is paper PMC8405639.

measured.on: hLPA1 (Homo sapiens)
Construct: expressed in transfected cells; host or cells: 293A cells
Sequence (Q92633 whole entry): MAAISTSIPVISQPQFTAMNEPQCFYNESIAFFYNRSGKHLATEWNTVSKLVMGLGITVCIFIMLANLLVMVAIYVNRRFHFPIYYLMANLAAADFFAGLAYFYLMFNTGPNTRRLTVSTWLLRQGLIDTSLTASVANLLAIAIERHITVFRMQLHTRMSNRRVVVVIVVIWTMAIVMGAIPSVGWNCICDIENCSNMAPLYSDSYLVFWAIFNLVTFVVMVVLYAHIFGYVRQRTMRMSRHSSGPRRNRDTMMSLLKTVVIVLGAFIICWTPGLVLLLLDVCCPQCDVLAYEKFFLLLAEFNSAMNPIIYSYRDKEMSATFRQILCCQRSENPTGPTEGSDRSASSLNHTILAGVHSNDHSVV
method.notes: TGFα-shedding assay, LPA1
Assay type: cell-based
test.context: AP-TGFα release, 293A cells; read-out: Emax ± SEM hLPA1 (converted)
quantity.name: Emax

# compound, result
records = [
    ("CCCCCCCC/C=C\\CCCCCCCC(=O)OC[C@@H]1COP(=O)(O)O1 [cPA 18:1, 1-Oleoyl-cPA]", "24.1%"),
    ("CCCCCCCC/C=C\\CCCCCCCC(=O)OCC(CO)CP(=O)(O)O (stereo not drawn) [2carbaLPA 18:1, 2-carba-lysophosphatidic acid]", "27%"),
    ("CCCCCCCC/C=C\\CCCCCCCC(=O)OCC1COP(=O)(O)C1 (stereo not drawn) [2ccPA 18:1, 2-carba-cyclic phosphatidic acid]", "20.6%"),
    ("CCCCCCCCC=CCCCCCCCC(=O)OCC(O)COP(=O)(O)O (stereo not drawn) [LPA 18:1, 1-Oleoyl-LPA]", "26.9%"),
    ("CCCCCCCC/C=C\\CCCCCCCC(=O)OC[C@@H](O)CCP(=O)(O)O [3carba LPA 18:1, 3-carba-lysophosphatidic acid]", "26.9%"),
    ("CCCCCCCC/C=C\\CCCCCCCC(=O)OC[C@@H]1CCP(=O)(O)O1 [3ccPA 18:1, 3-carba-cyclic phosphatidic acid]", "26.9%"),
]

###

measured.on: hLPA5 (Homo sapiens, UniProt Q9H1C0)
Construct: expressed in transfected cells; host or cells: 293A cells
Sequence (Q9H1C0 whole entry): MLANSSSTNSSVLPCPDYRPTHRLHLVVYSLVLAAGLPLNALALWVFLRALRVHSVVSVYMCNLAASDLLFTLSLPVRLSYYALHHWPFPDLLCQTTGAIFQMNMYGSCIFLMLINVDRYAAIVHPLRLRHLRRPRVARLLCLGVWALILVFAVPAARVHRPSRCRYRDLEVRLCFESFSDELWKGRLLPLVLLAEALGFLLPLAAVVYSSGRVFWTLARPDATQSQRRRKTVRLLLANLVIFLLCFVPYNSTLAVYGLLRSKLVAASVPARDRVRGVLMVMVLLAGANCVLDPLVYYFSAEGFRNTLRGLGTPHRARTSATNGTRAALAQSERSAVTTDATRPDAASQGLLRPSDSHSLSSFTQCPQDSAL
method.notes: TGFα-shedding assay, LPA5
Assay type: cell-based
test.context: AP-TGFα release, 293A cells; read-out: Emax ± SEM hLPA5 (converted)
Some compounds, each annotated with its measured Emax.

# compound, Emax (%)
data = [
    ("CCCCCCCC/C=C\\CCCCCCCC(=O)OC[C@@H](O)CCP(=O)(O)O [3carba LPA 18:1, 3-carba-lysophosphatidic acid]", 35.5),
    ("CCCCCCCC/C=C\\CCCCCCCC(=O)OC[C@@H]1CCP(=O)(O)O1 [3ccPA 18:1, 3-carba-cyclic phosphatidic acid]", 51.2),
    ("CCCCCCCC/C=C\\CCCCCCCC(=O)OC[C@@H]1COP(=O)(O)O1 [cPA 18:1, 1-Oleoyl-cPA]", 35.6),
    ("CCCCCCCC/C=C\\CCCCCCCC(=O)OCC1COP(=O)(O)C1 (centres unmarked) [2ccPA 18:1, 2-carba-cyclic phosphatidic acid]", 31.7),
    ("CCCCCCCC/C=C\\CCCCCCCC(=O)OCC(CO)CP(=O)(O)O (centres unmarked) [2carbaLPA 18:1, 2-carba-lysophosphatidic acid]", 38.3),
]

###

measured.on: hLPA1 (Homo sapiens)
method.notes: TGFα-shedding assay, LPA1
test.context: 293A cells, AP-TGFα release, 1 h
Protocol: Figure 4 Agonistic activity of 2-carba-lysophosphatidic acid (2carbaLPA) and cyclic phosphatidic acid (cPA) analogues toward six lysophosphatidic acid (LPA) receptors. 293A cells expressing LPA receptors were stimulated with the indicated concentration of LPA, 2carbaLPA, and cPA analogues. Receptor-specific alkaline phosphatase-tagged transforming growth factor-α release was calculated by subtracting the responses in the empty vector-transfected cells from those in the receptor-expressing cells. […]
Entries and their EC50

# molecule, unit.symbol, EC50
records = [
    ("CCCCCCCCC=CCCCCCCCC(=O)OCC(O)COP(=O)(O)O (stereo not drawn) [LPA 18:1, 1-Oleoyl-LPA]", "nM", 11.4),
    ("CCCCCCCC/C=C\\CCCCCCCC(=O)OCC1COP(=O)(O)C1 (stereo not drawn) [2ccPA 18:1, 2-carba-cyclic phosphatidic acid]", "nM", 997),
    ("CCCCCCCC/C=C\\CCCCCCCC(=O)OC[C@@H]1CCP(=O)(O)O1 [3ccPA 18:1, 3-carba-cyclic phosphatidic acid]", "nM", 370),
    ("CCCCCCCC/C=C\\CCCCCCCC(=O)OCC(CO)CP(=O)(O)O (stereo not drawn) [2carbaLPA 18:1, 2-carba-lysophosphatidic acid]", "nM", 54.8),
    ("CCCCCCCC/C=C\\CCCCCCCC(=O)OC[C@@H]1COP(=O)(O)O1 [cPA 18:1, 1-Oleoyl-cPA]", "nM", 460),
    ("CCCCCCCC/C=C\\CCCCCCCC(=O)OC[C@@H](O)CCP(=O)(O)O [3carba LPA 18:1, 3-carba-lysophosphatidic acid]", "nM", 11),
]

###

measured.on: hLPA2 (Homo sapiens)
Construct: expressed in transfected cells; host or cells: 293A cells
method.notes: TGFα-shedding assay, LPA2
Assay type: cell-based
test.context: 293A cells, AP-TGFα release, 1 h; bound
quantity.name: EC50

# compound, measured.on, quantity.name, result
rows = [
    ("CCCCCCCC/C=C\\CCCCCCCC(=O)OCC1COP(=O)(O)C1 (stereo not shown) [2ccPA 18:1, 2-carba-cyclic phosphatidic acid]", "hLPA2 (Homo sapiens)", "EC50", "> 3 µM"),
]

###

measured.on: hLPA2 (Homo sapiens)
Construct: expressed in transfected cells; host or cells: 293A cells
method.notes: TGFα-shedding assay, LPA2
Assay type: cell-based
test.context: AP-TGFα release, 293A cells; read-out: Emax ± SEM hLPA2 (converted)
The following compounds are listed with their measured Emax values.
quantity.name: Emax (%)

# compound, quantity.name, numeric.result
data = [
    ("CCCCCCCC/C=C\\CCCCCCCC(=O)OC[C@@H](O)CCP(=O)(O)O", "Emax", 30.7),
    ("CCCCCCCC/C=C\\CCCCCCCC(=O)OC[C@@H]1COP(=O)(O)O1", "Emax", 35.9),
    ("CCCCCCCC/C=C\\CCCCCCCC(=O)OCC(CO)CP(=O)(O)O (stereo not shown)", "Emax", 35.8),
    ("CCCCCCCC/C=C\\CCCCCCCC(=O)OC[C@@H]1CCP(=O)(O)O1", "Emax", 53.2),
]

###

Known EC50 of a selection of molecules
measured.on: hLPA2 (Homo sapiens, UniProt Q9HBW0)
Construct: expressed in transfected cells; host or cells: 293A cells
Sequence (Q9HBW0 whole entry): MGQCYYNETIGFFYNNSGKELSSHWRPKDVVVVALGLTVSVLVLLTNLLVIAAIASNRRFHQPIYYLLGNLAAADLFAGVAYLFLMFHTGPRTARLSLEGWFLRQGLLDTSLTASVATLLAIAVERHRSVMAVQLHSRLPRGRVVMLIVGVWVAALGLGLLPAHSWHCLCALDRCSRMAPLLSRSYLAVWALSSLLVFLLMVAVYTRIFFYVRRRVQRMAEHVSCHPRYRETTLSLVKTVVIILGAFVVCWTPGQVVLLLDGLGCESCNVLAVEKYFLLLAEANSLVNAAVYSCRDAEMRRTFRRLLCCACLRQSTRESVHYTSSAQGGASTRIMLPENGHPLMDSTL
method.notes: TGFα-shedding assay, LPA2
Type: cell-based
test.context: 293A cells, AP-TGFα release, 1 h

# molecule, unit.symbol, EC50
measured = [
    ("CCCCCCCC/C=C\\CCCCCCCC(=O)OC[C@@H]1COP(=O)(O)O1 [cPA 18:1, 1-Oleoyl-cPA]", "µM", 1.07),
    ("CCCCCCCC/C=C\\CCCCCCCC(=O)OCC(CO)CP(=O)(O)O (stereo not shown) [2carbaLPA 18:1, 2-carba-lysophosphatidic acid]", "µM", 0.256),
    ("CCCCCCCC/C=C\\CCCCCCCC(=O)OC[C@@H](O)CCP(=O)(O)O [3carba LPA 18:1, 3-carba-lysophosphatidic acid]", "µM", 0.0283),
    ("CCCCCCCC/C=C\\CCCCCCCC(=O)OC[C@@H]1CCP(=O)(O)O1 [3ccPA 18:1, 3-carba-cyclic phosphatidic acid]", "µM", 2.6),
]

###

measured.on: hLPA5 (Homo sapiens)
method.notes: TGFα-shedding assay, LPA5
test.context: 293A cells, AP-TGFα release, 1 h, with Ki16425 10 μM
Experimental: 293A cells expressing LPA receptors were stimulated with the indicated concentration of LPA, 2carbaLPA, and cPA analogues. Receptor-specific alkaline phosphatase-tagged transforming growth factor-α release was calculated by subtracting the responses in the empty vector-transfected cells from those in the receptor-expressing cells. Data are represented as standard error of the mean of three independent replicates. […]
quantity.name: EC50 (nM)

# compound, unit.symbol, numeric.result
measured = [
    ("CCCCCCCC/C=C\\CCCCCCCC(=O)OC[C@@H]1CCP(=O)(O)O1 [3ccPA 18:1, 3-carba-cyclic phosphatidic acid]", "nM", 2230),
    ("CCCCCCCC/C=C\\CCCCCCCC(=O)OC[C@@H](O)CCP(=O)(O)O [3carba LPA 18:1, 3-carba-lysophosphatidic acid]", "nM", 89.3),
    ("CCCCCCCC/C=C\\CCCCCCCC(=O)OCC1COP(=O)(O)C1 (centres unmarked) [2ccPA 18:1, 2-carba-cyclic phosphatidic acid]", "nM", 973),
    ("CCCCCCCC/C=C\\CCCCCCCC(=O)OCC(CO)CP(=O)(O)O (centres unmarked) [2carbaLPA 18:1, 2-carba-lysophosphatidic acid]", "nM", 50.2),
    ("CCCCCCCC/C=C\\CCCCCCCC(=O)OC[C@@H]1COP(=O)(O)O1 [cPA 18:1, 1-Oleoyl-cPA]", "nM", 354),
]

###

measured.on: hLPA4 (Homo sapiens)
Sequence (Q99677 whole entry): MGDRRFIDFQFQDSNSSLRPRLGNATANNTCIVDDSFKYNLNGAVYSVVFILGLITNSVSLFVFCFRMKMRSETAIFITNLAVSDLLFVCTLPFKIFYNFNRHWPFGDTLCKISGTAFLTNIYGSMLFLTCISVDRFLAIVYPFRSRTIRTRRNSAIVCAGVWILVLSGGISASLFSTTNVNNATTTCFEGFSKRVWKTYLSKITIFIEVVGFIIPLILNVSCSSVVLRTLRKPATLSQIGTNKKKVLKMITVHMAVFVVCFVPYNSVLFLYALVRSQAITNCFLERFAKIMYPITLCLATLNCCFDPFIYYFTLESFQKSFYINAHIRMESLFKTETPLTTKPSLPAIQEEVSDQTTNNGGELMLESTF
method.notes: TGFα-shedding assay, LPA4
test.context: 293A cells, AP-TGFα release, 1 h, with Ki16425 10 μM
pEC50: −log10 of the molar value.
Each entry below carries its recorded pEC50.
quantity.name: pEC50

# compound, numeric.result
measured = [
    ("CCCCCCCC/C=C\\CCCCCCCC(=O)OC[C@@H]1CCP(=O)(O)O1", 7.03),
    ("CCCCCCCC/C=C\\CCCCCCCC(=O)OC[C@@H](O)CCP(=O)(O)O", 8.72),
    ("CCCCCCCC/C=C\\CCCCCCCC(=O)OCC1COP(=O)(O)C1 (centres unmarked)", 7.14),
    ("CCCCCCCC/C=C\\CCCCCCCC(=O)OCC(CO)CP(=O)(O)O (centres unmarked)", 9.00),
    ("CCCCCCCC/C=C\\CCCCCCCC(=O)OC[C@@H]1COP(=O)(O)O1", 7.48),
]
